Every entry's value here was drawn from ChEMBL document CHEMBL4043247.

- assay.details: Antioxidant activity assessed as DPPH radical scavenging activity incubated for 30 mins under dark condition by UV-vis spectrophotometric method
- Format: functional
property.label: IC50 (µM)

1. COc1cccc(/C=N/N=C2/c3cc(Cl)ccc3-n3c2nc2ccccc2c3=O)c1O ... 22.2
2. COc1cccc(/C=N/N=C2/c3cc(F)ccc3-n3c2nc2ccccc2c3=O)c1O ... 21.1
3. COc1cccc(/C=N/N=C2/c3cc([N+](=O)[O-])ccc3-n3c2nc2ccccc2c3=O)c1O ... 28.7
4. CC(/C=C(\O)c1ccccc1)=N\N=C1\c2cc(F)ccc2-n2c1nc1ccccc1c2=O ... 20.1
